Assay: RAM signaling pathway blockade in yeast – S. cerevisiae, Pdr1DBD-CYC8 efflux-inhibited sensitized strain, primary screen (AID 1298);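 also: 0% = DMSO untreated cells without growth and 100% = 10 µM 1-NA-PP1 full growth; higher means more yeast growth rescued from 5-FOA killing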
Conditions: S. cerevisiae cbk1-as DSE1-URA3 strain, 5-FOA growth OD615, 2 d; at 50 µM; stronger effect = higher value
Assignment: determine reported RAM network inhibition for the given compounds.
Numbers only, in %.

The following compounds each have a reported value; give each one's RAM network inhibition.
1. COc1ccc(-c2nnc3ccc(SCC(=O)N4CCCCC4)nn23)cc1OC
2. CNC(=O)c1c(NC(=O)c2ccc(S(=O)(=O)N3CCOCC3)cc2)sc2c1CCC2

[2.36, 4.58]

Value sought for every listed compound: RAM network inhibition.
1. O=C(Cn1cc2c(n1)CCCCC2)Nc1ccc(F)cc1F
2. Cc1ccc(C2/C(=C(/O)c3ccccc3)C(=O)C(=O)N2CCN2CCOCC2)o1 (configuration not stated)
3. COc1cc2[nH]c(=O)n(CCCCCC(=O)NCCCN3CCC(C)CC3)c(=O)c2cc1OC

[2.75, -0.05, 2.66]

Consider the following items and state reported RAM network inhibition for each.
1. CCCCOC(=O)c1ccc(NC(=O)CSCc2n[nH]c(=O)[nH]2)cc1
2. Cc1nc2ccc(S(=O)(=O)NC(C(=O)N3CCCCCC3)C(C)C)cc2s1 (configuration not stated)
3. COC(=O)c1c(C)oc2ccc(OC(=O)c3cccs3)cc12
4. COc1cc(C2C3=C(CC(C)(C)CC3=O)N(C)C(=O)N2C)cc(OC)c1OC (configuration not stated)
5. O=C(CSc1ccccn1)c1ccc2c(c1)OCO2

[1.48, 2.77, 0.1, -0.15, 2.86]

I would be grateful if you could provide RAM network inhibition for each of the following entries.
1. O=C(NC(Nc1ncccn1)C(=O)c1ccccc1)c1ccccc1 (configuration not stated)
2. COc1ccccc1-c1nnc(SCC(=O)N2CCOCC2)o1
3. CN(C)CCNC(=O)c1cc2c(=O)n(C)c3ccccc3c2n1C
4. CCOC(=O)C1CCCN(c2cc(=O)n(-c3ccccc3Cl)c(=O)[nH]2)C1 (configuration not stated)

[2.01, 2.61, -0.26, 0.31]

###

What viability increase was measured for each of the following?
Assay: viability gain of MRP-1-high H69AR cells under doxorubicin, pilot screen, MRP-1 activator project, CellTiter-Glo, duplicate (AID 807);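 also: compound pretreatment 18-22 h then 72 h combined with doxorubicin; 0% = doxorubicin alone and 100% = vehicle without doxorubicin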
Conditions: H69AR viability with doxorubicin, CellTiter-Glo luminescence; at 10 µM; stronger effect = higher value
Give bare numbers, in %.

Provide viability increase values for the following items, in order.
1. CCCc1cc(C(=O)Nc2sc(C)c(CC)c2C#N)no1
2. CC(=O)c1cccc(NC(=O)c2c(F)c(F)c(F)c(F)c2F)c1
3. CCOc1cc(C#N)c(NC(=O)c2ccnn2C)cc1OCC

1. 2.26
2. -7.13
3. -2.47

Hi there! I need viability increase for each item below, if you can.
1. CCOC(=O)N1CCC(NC(=O)Cn2cc3c(n2)CCCC3)CC1
2. O=C(Nc1ccc2oc(-c3ccccc3)nc2c1)c1ccncc1
3. O=C(OCN1C(=O)c2ccccc2C1=O)c1cccs1
4. Cc1ccccc1NC(=O)CN(C)S(=O)(=O)c1cccc2cccnc12
5. Cc1c(NC(=O)c2ccc(F)cc2)c(=O)n(-c2ccccc2)n1C
6. O=C1CSC(=O)N1CC(O)COc1ccc(Cl)cc1 (stereo not drawn)
7. COc1cc(C(=O)Nc2ccc(S(=O)(=O)Nc3onc(C)c3C)cc2)cc(OC)c1OC
8. CCOC(=O)C(C)n1cnc2c(nnn2-c2cccc(Cl)c2)c1=O (stereo not drawn)

1. -3.35
2. 2.36
3. -0.64
4. -0.34
5. -2.08
6. 3.19
7. 0.55
8. 1.78

List viability increase for every entry below, keeping the order given.
1. COc1cccc(N(CC(=O)Nc2cccc(C(C)=O)c2)S(C)(=O)=O)c1
2. CCN(CC)CCCNC(=O)C1c2ccccc2C(=O)N(C)C1c1ccc(OC)cc1 (stereo not drawn)

1: -0.61; 2: 0.37

Parameters: items (list). Returns: viability increase for each item.
1. O=C(O)c1ccccc1C(=O)NCc1ccccc1
2. CCCNC(=O)CS(=O)Cc1nc(-c2ccccc2C)oc1C (stereo not drawn)
3. CN1CCN(S(=O)(=O)c2ccc(NC(=O)c3cccc(S(=O)(=O)N4CCCC4)c3)cc2)CC1
4. Cc1ccc(C2CC(c3ccccc3)n3ncnc3N2)cc1 (stereo not drawn)
5. COC(=O)c1c(NC(=O)CSc2nnnn2-c2ccccc2)sc2c1CCC(C)C2 (stereo not drawn)
6. COc1ccc(-n2c3c(cc(C(=O)Nc4ccc5c(c4)C(=O)NC5=O)c2=O)C(=O)CCC3)cc1

[1.13, 0.85, -3.98, 1.68, -1.07, 0.08]

###

Assay: inhibitors of the yeast RAM network, pilot screen, dse1pr::URA3 reporter, 5-FOA selection (AID 869);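 also: 0% = DMSO wells with no growth and 100% = 10 µM 1-NA-PP1 with full growth; RAM network block rescues cells from 5-FOA so hits raise OD615 growth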
Conditions: S. cerevisiae dse1pr::URA3 5-FOA growth, OD615, 2 d; at 10 µM; stronger effect = higher value; strain carries analog-sensitive mutant Cbk1 kinase
For each entry below, report its inhibition value.
Numbers only, in %.

For orientation, consider the following solved cases.
C=CCn1c(CCCNC(=O)C(C)(C)C)nc2ccccc21 : 0.295
CC1CN(CCC(=O)Nc2ccc3c(c2)CCC3)CC(C)O1 (stereo unspecified) : 0.995
CCN1CCN(c2cc(C)c3cc(NC(=O)c4cnccn4)ccc3n2)CC1 : -0.02
CC(=O)N1CCc2cc(C(=O)CN3CCN(C(=O)c4ccco4)CC3)ccc21 : 3.93

List reported inhibition for each of these molecules:
1. O=C(CSc1nc2c(c(=O)n1-c1ccc(Br)cc1)SCC2)NCC1CCCO1 (stereo unspecified)
2. CCOC(=O)C1CCCN(C(=O)CN(c2ccc(OC)cc2)S(=O)(=O)c2c(C)noc2C)C1 (stereo unspecified)
3. Cc1cc(Nc2cccc(F)c2)n2ncnc2n1
4. CCOc1ccc(CCNC(=O)c2oc3c(c2C)-c2[nH]ncc2CC3)cc1OCC
5. NC(=O)NC1CCCc2c1[nH]c1ccc(Cl)cc21 (stereo unspecified)
6. COc1ccccc1C(=O)NCc1ccc2c(c1)OCO2

1.69
1.58
1.23
1.57
1.15
0.52

Any idea what its inhibition is? The molecule is CC12CN3CC(C)(CN(C1)C3c1ccc3ccccc3c1O)C2=O (stereo unspecified)
-0.515

###

Hi there, I'd appreciate the recorded growth inhibition for every entry that follows.
Assay: Restrictive medium S. cerevisiae growth inhibition, OD615, pilot screen of yeast lifespan reduction project, restrictive growth control (AID 706);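 also: modified DeaD lifespan yeast strain shifted to restrictive glucose medium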
Details: OD615, 48 h, at 10 µM, stronger effect = higher value
Give bare numbers, in %.

Cn1c(=O)oc2cc(S(=O)(=O)NCCCN3CCCC3=O)ccc21 : -6.43
Cc1c(C(=O)N2CCN(C(=O)c3ccco3)CC2)sc2nc(-c3ccc(F)cc3)cn12 : 3.62
COc1ccc(-c2nc(CNS(=O)(=O)c3cc(OC)ccc3OC)cs2)cc1 : 5.36
N#CC1=C2SCN(Cc3ccccc3)CN2C(=O)CC1c1cccs1 (stereo unspecified) : 30.2
CN(C)S(=O)(=O)c1ccc(NC(=O)C2COc3ccccc3O2)cc1 (stereo unspecified) : -10.9

Lab note: each molecule below needs its growth inhibition filled in.
1. Cc1ccccc1-c1nnc(-c2ccccc2)o1
2. O=C(Cn1c(=O)oc2cc(S(=O)(=O)N3CCCC3)ccc21)N1CCN(c2ccccn2)CC1
3. CCOC(=O)C1CCN(C(=O)C2c3ccccc3C(=O)N(C)C2c2ccc(OC)cc2)CC1 (stereo unspecified)
4. Cc1ccc(NC(=O)CSc2nnc(Cn3c(=O)sc4ccccc43)n2C)cc1Cl
5. CCNC(=O)COc1ccc2ccccc2c1
6. CC1CCN(c2nc(-c3ccco3)c3c(c2C#N)CC(C)(C)OC3)CC1

-4.75
6.56
-16.1
-18.1
3.62
-3.74

###

Would you mind telling me the reported growth inhibition of each entry?
Test: Restrictive medium S. cerevisiae growth inhibition, OD615, pilot screen of yeast lifespan reduction project, restrictive growth control (AID 706);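 also: modified DeaD lifespan yeast strain shifted to restrictive glucose medium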
Conditions: OD615, 48 h, at 10 µM, stronger effect = higher value
Give bare numbers, in %.

CCn1c(C(C)NC(=O)Cc2ccccc2)nc2ccccc21 (stereo unspecified) : -17.6
Cc1ccc(-c2nc(CS(=O)CC(=O)NCCN3CCCC3)c(C)o2)cc1 (stereo unspecified) : -5.56
O=C(Cc1cccs1)N1CCN(c2ccccn2)CC1 : -11.1
CCSc1nc2c(cnn2-c2ccc(C)c(C)c2)c(=O)[nH]1 : -2.05
COc1ccccc1NC(=O)c1ccc(N)cc1 : -2.66

With those in mind, consider the next molecule.
Query (molecule): CN(C)CCCN1C(=O)c2oc3ccc(F)cc3c(=O)c2C1c1cccnc1 (stereo unspecified) ; field requested: growth inhibition
7.96

###

Assay: RAM signaling pathway blockade in yeast – S. cerevisiae, Pdr1DBD-CYC8 efflux-inhibited sensitized strain, primary screen (AID 1298);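 also: 0% = DMSO untreated cells without growth and 100% = 10 µM 1-NA-PP1 full growth; higher means more yeast growth rescued from 5-FOA killing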
Settings: S. cerevisiae cbk1-as DSE1-URA3 strain, 5-FOA growth OD615, 2 d; at 50 µM; stronger effect = higher value
Assay readout: RAM network inhibition (%)
Answers are plain numbers, in %.

CCOC(=O)c1c(/N=C/N(C)C)sc(C(=O)OC)c1C : 1.45
O=C(COC(=O)c1ccc(Br)c(S(=O)(=O)N2CCOCC2)c1)NCC1CCCO1 (stereo not given) : 4.66

Provide the reported RAM network inhibition of each entry below, same order.
1. O=C(O)CCCC(=O)N1CCc2cc(S(=O)(=O)N3CCc4ccccc43)ccc21
2. COc1ccc(NC(=O)C2CCN(S(=O)(=O)c3cccc4cccnc34)CC2)cc1
3. CCOC(=O)C1=C(C)NC(C)=C(C(=O)OCC)C1C(=O)O
4. Cc1cc(N2CCC(N(C)C3CCCC3)CC2)nc2cc(O)ccc12
5. COc1ccc(N(CC(=O)Nc2ccc(C)cn2)S(=O)(=O)c2c(C)nn(C)c2C)cc1
6. Nc1nc(NC(=O)c2cccc(S(=O)(=O)N3CCCCCC3)c2)nc(-c2ccccc2)n1
7. CCCSCCCNC(=O)Cn1cc2c(n1)CCCCC2
8. COc1cccc2c1N1C(=O)c3c(C(=O)O)cccc3C1CC2(C)C (stereo not given)

1: 1.3; 2: 0.67; 3: 1.53; 4: 2.21; 5: 5.27; 6: 4.53; 7: 3.05; 8: 2.74
